# TESTED_TARGET: ROCK1 (Homo sapiens)
# Sequence (Q13464 1-535): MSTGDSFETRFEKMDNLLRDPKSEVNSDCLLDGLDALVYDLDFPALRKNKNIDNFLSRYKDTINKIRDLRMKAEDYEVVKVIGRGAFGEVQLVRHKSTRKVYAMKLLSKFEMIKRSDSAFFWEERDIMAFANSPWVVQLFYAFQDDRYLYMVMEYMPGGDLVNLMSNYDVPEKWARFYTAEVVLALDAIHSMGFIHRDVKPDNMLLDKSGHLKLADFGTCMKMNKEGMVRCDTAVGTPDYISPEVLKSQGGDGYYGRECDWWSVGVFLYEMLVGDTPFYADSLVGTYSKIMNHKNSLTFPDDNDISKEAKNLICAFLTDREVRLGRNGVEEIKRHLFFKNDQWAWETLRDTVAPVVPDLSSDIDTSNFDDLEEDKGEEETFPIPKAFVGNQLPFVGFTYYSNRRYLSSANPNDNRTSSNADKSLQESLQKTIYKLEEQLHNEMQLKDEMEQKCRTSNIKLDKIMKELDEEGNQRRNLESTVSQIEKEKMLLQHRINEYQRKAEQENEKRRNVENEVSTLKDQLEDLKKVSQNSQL
# ASSAY_METHOD_TEXT: MLC phosphorylation in MDA-MB-231 cells expressing doxycycline-induced ROCK1 kinase domain (quantitative western blot)
# Set-up: The kinase domains of MRCKβ (1–473), ROCK1 (1–535) or ROCK2 (1–532) were gene synthesized; expressed in transfected cells; host or cells: MDA-MB-231 D3H2LN-Luc Tet3G cells, pTRE3G-ROCK1 (1–535)
# DETAILS: doxycycline-induced MDA-MB-231, 60 minutes treatment; read-out: cell based EC50, MLC phosphorylation induced by ROCK1
pEC50: −log10 of the molar value.
METRIC: pEC50

MOLECULE	ASSAY_RESULT
O=C(Nc1cn[nH]c1-c1ccccn1)c1nn(C2CCNCC2)cc1Cl [BDP5290]	6.30
